Enzyme Activity Endpoint Assay: Fc listing for selected proteins.
SYSTEM_NAME: pooled human IgG (human IgG1,2,3 and 4)
Entry rule: numbers only, all in ng/µL.

PROTEIN	ASSAY_RESULT
PRT-167 (protein) MANQEIRYSEVTPYHVTSVWTKGVTPPTDFTQGEDVFHAPYKANQGWYDITKTFNGKDDLLCGAATAGNMLHWWFDQNKDQIKRYLEEHPEKQKINFNGEQMFDVKEAIDTKNSQLDSKLFEYFKEKAFPYLSTKHLGVFPDHVIDMFINGYRLSLTNHGPTPVKEGSKDPRGGIFDAVFTRGDQSKLLTSRHDFKEKNLKEISDLIKKELTEGKALGLSHTYANVRINHVINLWGADFDSNGNLKAIYVTDSDSNASIGMKKYFVGVNSAGKVAISAKEIKEDNIGAQVLGLFTLSTGQDSWNQTN	161

**Q:** Complete the entry with Enzyme Activity Endpoint Assay: Fc for PRT-176 (protein) MANQEIRYSEVTPYHITSVWTKGVTPPTDFIKGEDVFHAPYKAHQGWYDITKTFNGGDDLLCGAATAGNMLHWWFDQNKTQIEAYLKKHPEKQKINFNGEQMFDVKEAIDTKNSQTNSELFNYFKEKAFPYLSTKHLGVFPDHVIDMFINGYRLSLTNHGPTPVKRQTKDPRGGIFDAVFGRGDQTKLLTSRHDFKEKTLNDISQLIKQELQSGKALGLSHTYANVRINHVINLWGADFDAEGNLEAIYVTDSDSNASIGMKKYFVGKNASGKVAISAKEIEDENIGAQVLGLFTLSTGKKSWEKTN
**A:** 140
